Reference source: patent US20190343828A1

System: pancreatic cancer cells (BxPC3)
Assay: In vitro cytotoxicity, CellTiter-Glo 96 h, BxPC3
Settings: Homo sapiens, BXPC-3, read-out: Cytotoxic potency (IC50 class), BxPC3
measuredProperty: IC50

Report IC50 under test system pancreatic cancer cells (BxPC3) for CC[C@@]1(O)C(=O)OCc2c1cc1n(c2=O)Cc2c-1nc1cc3c(cc1c2CNC(=O)CCN)OCO3 [Compound 4d] .
100 to 1000 nM

Report IC50 under test system pancreatic cancer cells (BxPC3) for CC[C@@]1(O)C(=O)OCc2c1cc1n(c2=O)Cc2c-1nc1cc3c(cc1c2CN(C)CCNC)OCO3 [Compound 5x] .
100 to 1000 nM

Report IC50 under test system pancreatic cancer cells (BxPC3) for CC[C@@]1(O)C(=O)OCc2c1cc1n(c2=O)Cc2c-1nc1cc3c(cc1c2CNC)OCO3 [Compound 5] .
10 to 100 nM

Report IC50 under test system pancreatic cancer cells (BxPC3) for CC[C@@]1(O)C(=O)OCc2c1cc1n(c2=O)Cc2c-1nc1cc3c(cc1c2CNC(=O)CN)OCO3 [Compound 4b] .
100 to 1000 nM

Report IC50 under test system pancreatic cancer cells (BxPC3) for CC[C@@]1(O)C(=O)OCc2c1cc1n(c2=O)Cc2c-1nc1cc3c(cc1c2CO)OCO3 [Compound 8c] .
1 to 10 nM

Report IC50 under test system pancreatic cancer cells (BxPC3) for CC[C@@]1(O)C(=O)OCc2c1cc1n(c2=O)Cc2c-1nc1cc3c(cc1c2C1CC1)OCO3 [Compound 6m] .
1 to 10 nM

Report IC50 under test system pancreatic cancer cells (BxPC3) for CC[C@@]1(O)C(=O)OCc2c1cc1n(c2=O)Cc2c-1nc1cc3c(cc1c2CN)OCO3 [Compound 4] .
1 to 10 nM
